Each recorded value in this set is attributed to PubChem BioAssay (EPA / NIEHS).

Read-out: Cytochrome P450 3A4 (Homo sapiens) (UniProt P08684)
Sequence (P08684 whole entry, looked up): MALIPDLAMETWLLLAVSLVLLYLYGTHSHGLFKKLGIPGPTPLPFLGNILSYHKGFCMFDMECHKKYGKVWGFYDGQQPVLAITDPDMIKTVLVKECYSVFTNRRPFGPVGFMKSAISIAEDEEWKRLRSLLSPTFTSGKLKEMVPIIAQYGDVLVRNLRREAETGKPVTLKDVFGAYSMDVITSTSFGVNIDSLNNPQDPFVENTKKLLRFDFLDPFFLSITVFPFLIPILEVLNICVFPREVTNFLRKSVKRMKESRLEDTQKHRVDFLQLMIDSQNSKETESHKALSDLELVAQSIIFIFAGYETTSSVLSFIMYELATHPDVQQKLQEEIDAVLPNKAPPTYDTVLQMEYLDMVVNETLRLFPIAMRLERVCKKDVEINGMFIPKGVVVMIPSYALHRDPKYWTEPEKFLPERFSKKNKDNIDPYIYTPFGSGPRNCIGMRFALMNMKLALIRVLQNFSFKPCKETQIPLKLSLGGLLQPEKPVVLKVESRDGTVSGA
Assay: CLD_CYP3A4_24hr: CellzDirect (CLD) Gene Expression Assay for xenobiotic metabolism (CYP3A4) at 24 hours (AID 2283689)
Results filed as inconclusive are left out. Calls of active or inactive are those of the source. Rule for the calls: active = hit-call score of the fitted dose curve at least 0.9, where 1 is the maximum; inconclusive = response in the unintended direction; inactive = score below 0.9.
Choose the fitting class; nothing outside active, inactive is accepted.

// below: answered molecules
INSERT INTO measurements (molecule, cat) VALUES
  ('CNC(=O)N(C)c1nnc(C(C)(C)C)s1', 'inactive'),
  ('CCCCOCN(C(=O)CCl)c1c(CC)cccc1CC', 'inactive'),
  ('CCN(CC)c1nc(C)cc(OP(=S)(OC)OC)n1', 'active'),
  ('COCc1cnc(C2=NC(C)(C(C)C)C(=O)N2)c(C(=O)O)c1 (stereo not drawn)', 'inactive'),
  ('CCCCC(C#N)(Cn1cncn1)c1ccc(Cl)cc1 (stereo not drawn)', 'active'),
  ('COC(=O)NS(=O)(=O)c1ccc(N)cc1', 'inactive'),
  ('COP(=S)(OC)Oc1ccc([N+](=O)[O-])c(C)c1', 'active'),
  ('CS(=O)(=O)c1cc(C(F)(F)F)ccc1C(=O)c1cnoc1C1CC1', 'active'),
  ('CSC(=O)c1c(C(F)F)nc(C(F)(F)F)c(C(=O)SC)c1CC(C)C', 'active'),
  ('Cn1c(-c2ccccc2)cc(-c2ccccc2)[n+]1C', 'inactive');

In this assay, the call recorded for "COc1cc(OC)nc(NC(=O)NS(=O)(=O)c2ncccc2OCC(F)(F)F)n1" was what? inactive

How was "COC(=O)c1c(C(F)F)nc(C(F)(F)F)c(C2=NCCS2)c1CC(C)C" classified in this test? inactive

Identify the outcome logged in this assay for the molecule shown: "CC(C)N1C(=O)N(c2ccccc2)CSC1=NC(C)(C)C" active

###

Read-out: xenobiotic metabolism (CYP1A1), CYP1A1 (gene 1543)
Assay: CLD_CYP1A1_24hr: CellzDirect (CLD) Gene Expression Assay for xenobiotic metabolism (CYP1A1) at 24 hours (AID 2283673);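 note: CYP1A1 mRNA level by quantitative nuclease protection with chemiluminescence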
Records with an inconclusive call do not appear. The source made the active and inactive calls. How the source made its calls: active means hit-call score of the fitted dose curve at least 0.9, where 1 is the maximum; inconclusive means response in the unintended direction; inactive means score below 0.9.
The reply should name one outcome from active, inactive

Reference set (8 entries):
INSERT INTO assay_data (molecule, cat) VALUES
  ('Cc1ccc(N=CN(C)C=Nc2ccc(C)cc2C)c(C)c1', 'active'),
  ('C=C(C)CN(CC)c1c([N+](=O)[O-])cc(C(F)(F)F)cc1[N+](=O)[O-]', 'active'),
  ('CCCCOCN(C(=O)CCl)c1c(CC)cccc1CC', 'active'),
  ('CNC(=O)Oc1cccc2ccccc12', 'active'),
  ('COC(=O)c1c(C(F)F)nc(C(F)(F)F)c(C2=NCCS2)c1CC(C)C', 'active'),
  ('COc1cc(Cl)c(OC)cc1Cl', 'inactive'),
  ('CCOc1nc(C(Cl)(Cl)Cl)ns1', 'inactive'),
  ('COCC(C)N(C(=O)CCl)c1c(C)csc1C (stereo not drawn)', 'inactive');

Assay result, entry O=C1C2CC=CCC2C(=O)N1SC(Cl)(Cl)Cl (stereo not drawn) — outcome? inactive

What did the test return for "CCOc1nc(F)cc2nc(S(=O)(=O)Nc3c(Cl)cccc3Cl)nn12" ? active

// outcome(item) with item = CCOC(=O)C(C)OC(=O)c1cc(Oc2ccc(C(F)(F)F)cc2Cl)ccc1[N+](=O)[O-] (stereo not drawn) active

Status in this test for "CS(=O)(=O)c1ccc(C(=O)C2C(=O)CCCC2=O)c([N+](=O)[O-])c1" ? inactive

Hello, I am checking results. What call was entered for "CNC(=O)N(C)c1nnc(C(C)(C)C)s1" ? inactive

Look up the recorded call for CCOc1cc(C(C)(C)C)ccc1C1COC(c2c(F)cccc2F)=N1 (stereo not drawn) in this test. active

Outcome? CCN(CC)C(=O)C(C)Oc1cccc2ccccc12 (stereo not drawn) inactive

Lab log entry: "N#Cc1c[nH]cc1-c1cccc2c1OC(F)(F)O2" — outcome as called in the assay? active

Fill in: this test's call for "CC(C)Nc1nc(Cl)nc(NC(C)C)n1" is ___ active
